System: female Sprague-Dawley rats
Assay Info: Cystometry tests on conscious fresh rats
Assay type: in vivo, rat
Particulars: 0.5 mg/kg iv, effect maximum, mean of 3 micturition cycles
Marks after values point to notes of the source that are not given here.
Reported Property: ICI Inter-Contraction Interval (change compared to the baseline value)

Worked cases, ICI Inter-Contraction Interval (change compared to the baseline value) given:
CC[C@@](O)(c1cccc(OC)c1)[C@@H](C)CN(C)C.Cl [Compound 21] | +10%
CC[C@](O)(c1cccc(OC)c1)[C@H](C)CN(C)C.Cl [Compound 2] | +28.6%**
CC[C@@H](c1cccc(O)c1)[C@@H](C)CN(C)C.Cl [Compound 11] | +22.6%

With those in mind, consider the next compound.
Request: // Input: C[C@H](CN(C)C)[C@@](C)(O)c1cccc(O)c1.Cl [Compound 9] . Output its ICI Inter-Contraction Interval (change compared to the baseline value) only.
Result: +21%*
